Conditions: in diisopropyl ether, 298.2 K
Assay Endpoint: solubility (mole fraction)
// no unit, no text: just the number

// query Field request: solubility (mole fraction) | item: O=C(O)c1cccc([N+](=O)[O-])c1
// result 0.0591

====

Settings: in methyl acetate, 298.2 K
Assay Endpoint: solubility (mole fraction)
// no unit, no text: just the number

// query Field request: solubility (mole fraction) | item: O=C(O)c1cccc([N+](=O)[O-])c1
// result 0.147

====

Details: in n-octanol, 298.2 K
Assay Endpoint: solubility (mole fraction)
// no unit, no text: just the number

// query Field request: solubility (mole fraction) | item: O=C(O)c1cccc([N+](=O)[O-])c1
// result 0.144

====

Settings: in THF, 298.2 K
Assay Endpoint: solubility (mole fraction)

// query Field request: solubility (mole fraction) | item: O=C(O)c1cccc([N+](=O)[O-])c1
// result 0.36

====

Details: in n-propanol, 298.2 K
Assay Endpoint: solubility (mole fraction)
// no unit, no text: just the number

// query Field request: solubility (mole fraction) | item: O=C(O)c1cccc([N+](=O)[O-])c1
// result 0.149

====

Conditions: in n-heptanol, 298.2 K
Assay Endpoint: solubility (mole fraction)
// no unit, no text: just the number

// query Field request: solubility (mole fraction) | item: O=C(O)c1cccc([N+](=O)[O-])c1
// result 0.136

====

Conditions: in diethyl ether, 298.2 K
Assay Endpoint: solubility (mole fraction)

// query Field request: solubility (mole fraction) | item: O=C(O)c1cccc([N+](=O)[O-])c1
// result 0.127

====

Conditions: in sec-butanol, 298.2 K
Assay Endpoint: solubility (mole fraction)
// no unit, no text: just the number

// query Field request: solubility (mole fraction) | item: O=C(O)c1cccc([N+](=O)[O-])c1
// result 0.188

====

Conditions: in n-pentanol, 298.2 K
Assay Endpoint: solubility (mole fraction)
// no unit, no text: just the number

// query Field request: solubility (mole fraction) | item: O=C(O)c1cccc([N+](=O)[O-])c1
// result 0.143

====

Conditions: in ethanol, 298.2 K
Assay Endpoint: solubility (mole fraction)
// no unit, no text: just the number

// query Field request: solubility (mole fraction) | item: O=C(O)c1cccc([N+](=O)[O-])c1
// result 0.175

====

Details: in n-hexanol, 298.2 K
Assay Endpoint: solubility (mole fraction)
// no unit, no text: just the number

// query Field request: solubility (mole fraction) | item: O=C(O)c1cccc([N+](=O)[O-])c1
// result 0.139

====

Details: in n-decanol, 298.2 K
Assay Endpoint: solubility (mole fraction)
// no unit, no text: just the number

// query Field request: solubility (mole fraction) | item: O=C(O)c1cccc([N+](=O)[O-])c1
// result 0.139

====

Settings: in 2-methyl-1-butanol, 298.2 K
Assay Endpoint: solubility (mole fraction)
// no unit, no text: just the number

// query Field request: solubility (mole fraction) | item: O=C(O)c1cccc([N+](=O)[O-])c1
// result 0.11
